// kinase still bound, per cent of control lookup, one value per entry
molecular target: PKN1 (human); experiment: KINOMEscan competition binding; details: compound 10.0 µM
Write it as a number; the unit % goes unstated.

{"columns": ["moleculeSmiles", "unitTag", "kinase still bound, per cent of control"],
 "data": [
  ["CCC(=O)N1CCN(c2ccc(-n3c(=O)ccc4cnc5ccc(-c6cnc7ccccc7c6)cc5c43)cc2C(F)(F)F)CC1", "%", 92],
  ["OCCCNc1cc(-c2ccnc(Nc3cccc(Cl)c3)n2)ccn1", "%", 100],
  ["CN(C)C/C=C/C(=O)Nc1cccc(Nc2ncc3c(n2)N(C)c2ccccc2C(=O)N3C)c1", "%", 69],
  ["O=C(NC1CC1)c1cccc(-c2ccc3c(NC(=O)C4CC4)n[nH]c3c2)c1", "%", 100],
  ["CCOc1cc2ncc(C#N)c(Nc3ccc(OCc4ccccn4)c(Cl)c3)c2cc1NC(=O)/C=C/CN(C)C", "%", 100],
  ["COc1cc(C(=O)NC2CCN(C)CC2)ccc1Nc1ncc2c(n1)N(C1CCCC1)CCC(=O)N2C(C)C", "%", 100]
]}

Alright, here's another compound for you.
Provide the documented kinase still bound, per cent of control with PKN1 (human) as the system for `CC[C@@H]1C(=O)N(C)c2cnc(Nc3ccc(C(=O)NC4CCN(C)CC4)cc3OC)nc2N1C1CCCC1`
100

* * *

// kinase still bound, per cent of control lookup, one value per entry
target: UniProt:P51957; assay: KINOMEscan competition binding; conditions: compound 10.0 µM
Sequence (P51957 whole entry, looked up): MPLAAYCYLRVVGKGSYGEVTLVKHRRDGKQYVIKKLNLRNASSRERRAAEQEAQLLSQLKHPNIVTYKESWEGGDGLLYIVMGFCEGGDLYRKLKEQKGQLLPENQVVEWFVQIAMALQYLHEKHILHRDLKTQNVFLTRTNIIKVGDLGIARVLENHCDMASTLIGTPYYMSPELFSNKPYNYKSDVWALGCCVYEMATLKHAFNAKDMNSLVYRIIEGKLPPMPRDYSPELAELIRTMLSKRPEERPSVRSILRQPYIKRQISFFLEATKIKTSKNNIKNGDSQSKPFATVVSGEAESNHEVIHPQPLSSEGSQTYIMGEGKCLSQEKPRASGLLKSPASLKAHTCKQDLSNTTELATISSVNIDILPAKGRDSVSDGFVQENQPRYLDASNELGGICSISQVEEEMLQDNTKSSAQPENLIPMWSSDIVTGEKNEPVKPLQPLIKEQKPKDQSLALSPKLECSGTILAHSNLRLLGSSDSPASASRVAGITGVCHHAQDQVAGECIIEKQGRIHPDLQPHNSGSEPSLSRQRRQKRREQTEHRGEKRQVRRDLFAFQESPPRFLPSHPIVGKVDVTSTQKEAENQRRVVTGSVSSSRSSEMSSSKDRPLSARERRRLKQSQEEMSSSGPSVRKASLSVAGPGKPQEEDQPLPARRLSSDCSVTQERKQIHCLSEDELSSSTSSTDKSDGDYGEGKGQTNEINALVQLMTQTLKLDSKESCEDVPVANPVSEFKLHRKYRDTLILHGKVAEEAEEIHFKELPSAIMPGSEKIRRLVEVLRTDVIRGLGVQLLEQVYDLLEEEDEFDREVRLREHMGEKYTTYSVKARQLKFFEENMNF
Write it as a number; the unit % goes unstated.

The following compounds have reported results that may help.
{"columns": ["moleculeSmiles", "experimentalSystem", "unitTag", "testValue"],
 "data": [
  ["COc1cc(N2CCN(C)CC2)ccc1Nc1nc(N)c(C(=O)c2c(Cl)cccc2Cl)s1", "UniProt:P51957", "%", 96],
  ["Cc1ccc(NC(=O)c2cccc(C(C)(C)C#N)c2)cc1Nc1ccc2ncn(C)c(=O)c2c1", "UniProt:P51957", "%", 89],
  ["O=C1Nc2ccc(I)cc2/C1=C/c1cc(Br)c(O)c(Br)c1", "UniProt:P51957", "%", 93],
  ["Cc1ccc2nc(NCCN)c3ncc(C)n3c2c1", "UniProt:P51957", "%", 100]
]}

Alright, here's another compound for you.
Provide the documented kinase still bound, per cent of control with UniProt:P51957 as the system for `C=CC(=O)Nc1cc(NC(=O)c2ccc(C)c(NC(=O)c3ccno3)c2)cc(C(F)(F)F)c1`
84

* * *

biological target: DMPK (human); experiment: KINOMEscan competition binding; conditions: compound 10.0 µM
recordedMetric: kinase still bound, per cent of control (%)
Write it as a number; the unit % goes unstated.

The following compounds have reported results that may help.
{"columns": ["compound", "kinase still bound, per cent of control, %"],
 "data": [
  ["COc1cc(C(=O)NC2CCN(C)CC2)ccc1Nc1ncc2c(n1)N(C1CCCC1)C(C)CC(=O)N2C (stereo unspecified)", 100],
  ["Cc1cc([C@@H](C)Nc2ccccc2C(=O)O)c2nc(N3CCOCC3)cc(=O)n2c1", 100],
  ["O=C(O)c1ccc(Nc2ncc3c(n2)-c2ccc(Cl)cc2C(c2c(F)cccc2F)=NC3)cc1", 79],
  ["Cc1ccc(C(=O)Nc2cccc(C(F)(F)F)c2)cc1Nc1cncc(C(N)=O)c1", 100],
  ["O=C1Nc2ccc(I)cc2/C1=C/c1cc(Br)c(O)c(Br)c1", 100],
  ["CCC(=O)N1CCN(c2ccc(-n3c(=O)ccc4cnc5ccc(-c6cnc7ccccc7c6)cc5c43)cc2C(F)(F)F)CC1", 77],
  ["CCN1CCN(Cc2ccc(Nc3ncc4c(n3)N(C)c3ccccc3C(=O)N4C)cc2C(F)(F)F)CC1", 91],
  ["C=CC(=O)Nc1cccc(Oc2nc(Nc3ccc(N4CCN(C)CC4)cc3OC)ncc2Cl)c1", 17]
]}

Give the measured kinase still bound, per cent of control of `Cc1ccc(NC(=O)c2cccc(C(C)(C)C#N)c2)cc1Nc1ccc2ncn(C)c(=O)c2c1` .
90

What do you have for `C=CC(=O)Nc1cc(NC(=O)c2ccc(C)c(NC(=O)c3ccno3)c2)cc(C(F)(F)F)c1` ?
100

What do you have for `CCOc1cc2ncc(C#N)c(Nc3ccc(OCc4ccccn4)c(Cl)c3)c2cc1NC(=O)/C=C/CN(C)C` ?
98
